biological target: human glucagon receptor (human) (UniProt P47871); test: cell-based or functional assay
Sequence (P47871 26-477): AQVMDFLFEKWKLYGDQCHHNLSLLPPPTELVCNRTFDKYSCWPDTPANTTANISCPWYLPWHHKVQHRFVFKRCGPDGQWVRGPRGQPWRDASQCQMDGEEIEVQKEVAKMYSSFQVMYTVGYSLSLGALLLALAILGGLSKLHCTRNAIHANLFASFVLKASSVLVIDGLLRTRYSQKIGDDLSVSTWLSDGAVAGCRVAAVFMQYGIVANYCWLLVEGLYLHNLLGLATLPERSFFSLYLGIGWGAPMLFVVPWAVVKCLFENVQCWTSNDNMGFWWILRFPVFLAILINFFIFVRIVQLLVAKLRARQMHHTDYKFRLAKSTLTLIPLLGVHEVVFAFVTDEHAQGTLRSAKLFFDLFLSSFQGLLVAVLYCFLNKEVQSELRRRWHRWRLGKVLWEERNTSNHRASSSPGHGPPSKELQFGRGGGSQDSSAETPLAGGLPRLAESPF
readoutKind: cAMP Rel EC50, nM (1% HSA) (nM)
Report the value in nM with no unit label.

In the examples that follow, each entry is paired with its recorded cAMP Rel EC50, nM (1% HSA).
YXQGTFTSDXSQXLDXKAQXAFIEYLIAGGPSSGEPPPSGTEEE (non-natural residues; acylated Lys; C-terminal amide; synthetic construct; SITE 2: note = 2-Aminoisobutyric Acid; SITE 10: note = 3-(4-Pyridyl)-L-alanine; SITE 13: note = alpha-methyl-leucine; SITE 16: note = L-ornithine; SITE 17: note = Lysine is chemically modified through conjugation of the epsilon-amino group of the Lysine side chain with (gamma-Gl)) [Example 986]
702
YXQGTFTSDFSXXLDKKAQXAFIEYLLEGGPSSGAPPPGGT (synthetic construct; SITE 2: note = 2-Aminoisobutyric Acid; SITE 12: note = L-ornithine; SITE 13: note = alpha-methyl-leucine; SITE 17: note = Lysine is chemically modified through conjugation of the epsilon-amino group of the Lysine side chain with (2-[2-(2-Amino-ethoxy)-ethoxy]-acetyl)-(gamma-Glu)) [Example 158]
325
YXQGTXTSDXXIXLDXKAQXEFIEXLVEGGPSSGEPPPSGE (synthetic construct; SITE 2: note = 2-Aminoisobutyric Acid; SITE 6: note = alpha-methyl-2-fluoro-L-phenylalanine; SITE 10: note = 3-(4-Pyridyl)-L-alanine; SITE 11: note = alpha-methyl-L-serine; SITE 13: note = alpha-methyl-leucine; SITE 16: note = L-ornithine; SITE 17: note = Lysine is chemically mo) [Example 750]
205

Now for a further binder.
What value of cAMP Rel EC50, nM (1% HSA) has been reported for the following binder? YXQGTFTSDXSRXLDKKAQXAFIEXLIEGGPSSGAPPPSGSEE (acylated lysine AEEA-γGlu-C18 diacid; non-natural residues; C-terminal amide; synthetic construct; SITE 2: note = 2-Aminoisobutyric Acid; SITE 10: note = 3-(4-Pyridyl)-L-alanine; SITE 13: note = alpha-methyl-leucine; SITE 17: note = Lysine is chemically modified through conjugation of the epsilon-amino group of the Lysine side chain with (2-[2-(2-Amino-ethoxy)-ethoxy]-acetyl)) [Example 956]
406

These data points were gathered from patent US20240270821A1.
